Tested on: histamine-induced bronchoconstriction
Assay: Histamine-induced bronchoconstriction in guinea pigs
Format: in vivo, guinea pig
Conditions: Cavia porcellus, iv, 0.5 min; test compound 1 mg/kg i.v., 30 seconds after administration, histamine 12.5 μg/kg i.v.
Method: Guinea pigs were anesthetized with pentobarbital (30 mg/kg, i.p.). […] The airflow through the branch of the tracheal cannula was measured by a bronchospasm transducer (Ugo-Basile) and recorded on a computer via Power Lab (ADInstruments Japan). […] To examine the inhibitory activity of test compound, the histamine-induced bronchoconstriction was measured after 30 seconds of drug administration. […]
Measured inhibition in vivo at 1 mg/kg, listed per entry for reference.
assay.endpoint: inhibition in vivo at 1 mg/kg

molecule | assay.endpoint | value
CCc1nn2cc(Cl)cc(C3=NNC(=O)CC3C)c2c1Cl (stereo not shown) | inhibition in vivo at 1 mg/kg | 70 to 80%
CCc1cc2c(C3=NNC(=O)CC3C)ccc(OC)n2n1 (stereo not shown) | inhibition in vivo at 1 mg/kg | ≥ 90%
CCc1nn2c(OC)ccc(C3=NNC(=O)CC3C)c2c1Cl (stereo not shown) | inhibition in vivo at 1 mg/kg | 70 to 80%
CCc1cc2c(-c3ccc(=O)[nH]n3)cccn2n1 | inhibition in vivo at 1 mg/kg | ≥ 90%
CCc1cc2c(C3=NNC(=O)CC3)cc(Cl)cn2n1 | inhibition in vivo at 1 mg/kg | ≥ 90%
CCc1cc2c(-c3ccc(=O)[nH]n3)ccc(OC)n2n1 | inhibition in vivo at 1 mg/kg | ≥ 90%
COc1ccc(C2=NNC(=O)CC2C)c2cc(C(C)C)nn12 (stereo not shown) | inhibition in vivo at 1 mg/kg | ≥ 90%
CCc1cc2c(C3=NNC(=O)CC3)ccc(OC)n2n1 | inhibition in vivo at 1 mg/kg | ≥ 90%
CCc1cc2c(C3=NNC(=O)CC3C)cc(Cl)cn2n1 (single isomer, unassigned; (+)) | inhibition in vivo at 1 mg/kg | ≥ 90%
CCc1cc2c(C3=NNC(=O)CC3C)cccn2n1 (stereo not shown) | inhibition in vivo at 1 mg/kg | ≥ 90%
